Source of measurements: paper PMC8159961

Target: human thrombin (Homo sapiens)
Construct: human thrombin; purchased Sigma-Aldrich
Experiment: Protease inhibitory assay, chromogenic substrate S-2238
Type: biochemical
Settings: Thrombin primary screening; substrate 40 µM; cmpd conc 500 µM
observedProperty: V0 / Vi
Number, no unit, nothing else.

Hi! What's the reported V0 / Vi for Cn1c(N)nc2ccccc21 [SX-A6] on human thrombin (Homo sapiens)? 0.93

// fetch human thrombin (Homo sapiens) V0 / Vi for CC1C(=O)NC(=O)N1c1ccc(Cl)cc1 (centres unmarked) [SX-E3] 0.98

Quick check: V0 / Vi on human thrombin (Homo sapiens), item COc1ccccc1CC1CCNCC1.Cl [SX-B12] ? 0.97

Entry Oc1cnc(-c2ccccc2)nc1 [SX-F11] , system human thrombin (Homo sapiens): what V0 / Vi was measured? 1.02

Observed V0 / Vi on human thrombin (Homo sapiens) for Cc1ccc(-c2ccc(O)cc2)cc1 [SX-D7] , please. 1.05

What V0 / Vi appears in the records for this compound with human thrombin (Homo sapiens)? CCCN1C(=O)CC(=O)NC1=S [SX-D5] 1.13

Lab note: need V0 / Vi with human thrombin (Homo sapiens) for entry O=C(Nc1ccccc1)C1CC1 [SX-F6] , please look it up. 0.98

Give the reported V0 / Vi for COc1ccccc1N1CCNCC1 [SX-A10] (system: human thrombin (Homo sapiens)). 0.96

Recorded V0 / Vi for CCn1cnc2ccccc21 [SX-D4] with human thrombin (Homo sapiens), please? 0.98

Notebook entry, human thrombin (Homo sapiens) assay: V0 / Vi of c1cnc2c(c1)NCCC2 [SX-E7] = ? 0.93

Param readout= V0 / Vi; system= human thrombin (Homo sapiens); entry= CN1CC(=O)NC1=O [SX-B10] ; returns value. 0.98

Value wanted: V0 / Vi (human thrombin (Homo sapiens)) of entry O=C(O)C1CCN(c2ncccn2)CC1 [SX-E9] 1.21

Query V0 / Vi on human thrombin (Homo sapiens) for Oc1nnc(-c2ccccc2)o1 [SX-F7] 0.99

Which V0 / Vi is reported with human thrombin (Homo sapiens) for this entry: O=c1[nH]c2c(s1)CCC2 [SX-C10] ? 0.94

Kindly state the measured V0 / Vi obtained for C1=C[C@H]2O[C@@H]1c1ccccc12 [SX-C11] with human thrombin (Homo sapiens). 0.96

Observed V0 / Vi on human thrombin (Homo sapiens) for COc1ccc(CN2CCNCC2)cc1F [SX-D11] , please. 0.91

Provide the documented V0 / Vi with human thrombin (Homo sapiens) as the system for CCc1nccn1CC(=O)O [SX-G11] 1.02

Request: V0 / Vi, test system human thrombin (Homo sapiens), entry NCC1(c2ccccc2)CCOCC1 [SX-F10] 0.89

Hi! What's the reported V0 / Vi for N#Cc1ccc2ncsc2c1 [SX-C12] on human thrombin (Homo sapiens)? 0.98

# returns recorded V0 / Vi (system: human thrombin (Homo sapiens)) for c1ccc(Nc2nncs2)cc1 [SX-D8] 0.99

// lookup V0 / Vi | system=human thrombin (Homo sapiens) | key= O=C1CSC(Nc2ccc(F)cc2)=N1 [SX-H10] 1.13

I'm curious: which V0 / Vi was measured for Cc1cc(N)no1 [SX-B11] tested on human thrombin (Homo sapiens)? 1.00

Requested read-out V0 / Vi, target or system human thrombin (Homo sapiens), entry Cc1cnc(C(F)(F)F)cn1 [SX-B9] 1.01

Record O=C(c1ccccc1F)N1CCNCC1 [SX-E12] : what is its V0 / Vi with human thrombin (Homo sapiens)? 0.98

What value of V0 / Vi on human thrombin (Homo sapiens) does O=C(O)CC1CCC(=O)N1 (centres unmarked) [SX-H2] have? 1.12

I'm curious: which V0 / Vi was measured for Nc1ccc(-c2ccccc2)cc1C(=O)O [SX-G9] tested on human thrombin (Homo sapiens)? 1.08

Identify the measured V0 / Vi of c1ccc2sc(N3CCNCC3)nc2c1 [SX-G5] for human thrombin (Homo sapiens). 1.04

# get_value(readout= V0 / Vi, system= human thrombin (Homo sapiens)) for NC(=O)N1CCC(C(=O)O)CC1 [SX-D12] 1.12

Reported V0 / Vi for human thrombin (Homo sapiens), given CCN(CC)c1cccc(C)c1 [SX-E4] ? 0.95
